# measured on: 5-hydroxytryptamine receptor 2B (Homo sapiens, UniProt P41595)
# Sequence (P41595 whole entry): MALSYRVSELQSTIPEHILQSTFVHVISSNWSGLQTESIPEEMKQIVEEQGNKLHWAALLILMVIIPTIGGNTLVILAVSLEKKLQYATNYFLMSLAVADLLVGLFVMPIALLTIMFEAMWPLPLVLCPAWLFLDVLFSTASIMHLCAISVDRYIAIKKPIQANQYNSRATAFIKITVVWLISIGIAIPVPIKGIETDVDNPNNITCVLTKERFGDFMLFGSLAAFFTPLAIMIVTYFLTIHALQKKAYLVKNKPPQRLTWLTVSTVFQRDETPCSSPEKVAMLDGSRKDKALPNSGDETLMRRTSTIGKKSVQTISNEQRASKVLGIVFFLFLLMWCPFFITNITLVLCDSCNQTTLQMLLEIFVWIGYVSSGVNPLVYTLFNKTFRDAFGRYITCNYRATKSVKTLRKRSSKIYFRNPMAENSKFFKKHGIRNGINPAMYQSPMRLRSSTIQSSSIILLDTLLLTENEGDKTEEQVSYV
# Format: functional, cell-based
Entries and their AC50 values follow.

Bench note, 5-hydroxytryptamine receptor 2B (Homo sapiens, UniProt P41595): entry CCOC(=O)C1=C(C)NC(C)=C(C(=O)OCC)C1c1ccccc1/C=C/C(=O)OC(C)(C)C [LACIDIPINE] , its AC50 = > 30 µM

AC50 for 5-hydroxytryptamine receptor 2B (Homo sapiens, UniProt P41595) with input CC(O)(CS(=O)(=O)c1ccc(F)cc1)C(=O)Nc1ccc(C#N)c(C(F)(F)F)c1 (stereo not given) [BICALUTAMIDE] equals > 10 µM

Given the compound COc1cc(C(=O)NC2CCCNC2)cc(OC)c1OC (stereo not given) [TROXIPIDE] and test system 5-hydroxytryptamine receptor 2B (Homo sapiens, UniProt P41595), the measured AC50 is > 30 µM

Entry Clc1ccc(CCC(Cn2ccnc2)Sc2c(Cl)cccc2Cl)cc1 (stereo not given) [BUTOCONAZOLE] under 5-hydroxytryptamine receptor 2B (Homo sapiens, UniProt P41595) had AC50 of > 30 µM

Result for C=C1c2cccc(O)c2C(=O)C2=C(O)[C@]3(O)C(=O)C(C(N)=O)=C(O)[C@@H](N(C)C)[C@@H]3[C@@H](O)[C@H]12 [METHACYCLINE] , tested on 5-hydroxytryptamine receptor 2B (Homo sapiens, UniProt P41595), AC50: > 10 µM

Observed AC50 on 5-hydroxytryptamine receptor 2B (Homo sapiens, UniProt P41595), entry CCOC(=O)C(C)(C)Oc1ccc(Cl)cc1 [CLOFIBRATE] , equals > 10 µM

Response field AC50 (5-hydroxytryptamine receptor 2B (Homo sapiens, UniProt P41595)) for item C=CC[N+]1([C@H]2C[C@H]3[C@@H]4CC[C@H]5C[C@H](O)[C@@H](N6CCOCC6)C[C@]5(C)[C@H]4CC[C@]3(C)[C@H]2OC(C)=O)CCCC1 [ROCURONIUM] : > 30 µM

For the compound c1ccc(C2(N3CCCCC3)CCCCC2)cc1 [PHENCYCLIDINE] , the measured AC50 on 5-hydroxytryptamine receptor 2B (Homo sapiens, UniProt P41595) was > 30 µM

Tested system 5-hydroxytryptamine receptor 2B (Homo sapiens, UniProt P41595); AC50 recorded for CCC(NC(C)C)C(O)c1ccc(O)c2[nH]c(=O)ccc12 (stereo not given) [PROCATEROL] was > 30 µM
